testedOn: human CD33 L141A (human, UniProt P20138 18-364)
Sequence (P20138 18-364 L141A limits assumed): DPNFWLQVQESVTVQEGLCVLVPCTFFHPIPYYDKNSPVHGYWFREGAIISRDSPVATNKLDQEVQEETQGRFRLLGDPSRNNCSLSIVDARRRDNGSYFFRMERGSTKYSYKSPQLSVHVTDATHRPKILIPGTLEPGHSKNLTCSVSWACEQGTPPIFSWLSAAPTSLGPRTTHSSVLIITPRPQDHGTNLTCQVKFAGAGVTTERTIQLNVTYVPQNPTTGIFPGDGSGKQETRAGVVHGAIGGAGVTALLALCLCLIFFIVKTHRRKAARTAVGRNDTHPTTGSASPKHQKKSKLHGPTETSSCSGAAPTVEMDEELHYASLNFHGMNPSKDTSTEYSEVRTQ
methodSummary: flow cytometry on HEK293-T, alanine scan
Task for the reader: assign each of the following binders its reported Mean % WT Binding.
The reply should consist of the numeric value with the unit placed after it.

Prompt line: Quickly give me recorded Mean % WT Binding for Refmab #2 (antibody, V domains shown, The alanine scan used IgG or Fab) VH: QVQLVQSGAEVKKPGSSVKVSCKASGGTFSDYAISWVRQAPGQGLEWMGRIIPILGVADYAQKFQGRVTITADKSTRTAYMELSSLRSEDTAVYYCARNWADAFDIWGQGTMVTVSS VL: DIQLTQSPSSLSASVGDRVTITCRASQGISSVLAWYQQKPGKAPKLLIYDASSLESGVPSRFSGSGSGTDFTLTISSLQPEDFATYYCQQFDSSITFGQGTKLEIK
Response line: 113 % WT binding

Prompt line: // fetch Mean % WT Binding given entry Refmab #3 (antibody, V domains shown, The alanine scan used IgG or Fab) VH: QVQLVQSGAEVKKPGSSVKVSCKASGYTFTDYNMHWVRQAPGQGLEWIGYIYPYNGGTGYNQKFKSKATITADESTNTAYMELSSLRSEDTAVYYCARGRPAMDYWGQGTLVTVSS VL: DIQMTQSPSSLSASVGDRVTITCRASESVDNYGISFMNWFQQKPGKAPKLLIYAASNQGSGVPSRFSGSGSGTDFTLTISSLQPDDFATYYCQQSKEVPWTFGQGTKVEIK
Response line: 153 % WT binding

Prompt line: Fill in reported Mean % WT Binding for this entry: Refmab #1 (antibody, V domains shown, The alanine scan used IgG or Fab; also called hP67.6) VH: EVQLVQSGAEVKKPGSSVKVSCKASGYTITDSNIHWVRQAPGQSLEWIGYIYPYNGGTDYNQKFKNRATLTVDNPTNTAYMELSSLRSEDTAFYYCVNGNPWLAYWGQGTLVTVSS VL: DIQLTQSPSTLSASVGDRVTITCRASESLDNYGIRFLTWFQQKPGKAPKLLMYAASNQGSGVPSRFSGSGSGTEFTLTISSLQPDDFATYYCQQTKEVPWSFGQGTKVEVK
Response line: 103 % WT binding
